- Tested on: Escherichia coli TOP10
- experiment_summary: shrunken log2 fold change of peptide-encoding DNA abundance (4.5 h post-induction vs induction); higher = less antimicrobial activity (less host growth inhibition)
- condition_info: time post-induction: 4.5 h; library: site-saturation at positions 5, 18, 19, 20
Binning rule for recorded shrunken log2 fold change: bottom range: < -0.1; center range: ≥ -0.1 and < 0.07; top range: ≥ 0.07

Solved cases (6 shown):
RRIRIRPPRLPRPRPRPQMLPRP : bottom range
RRIRTRPPRLPRPRPRPNYMPRP : center range
RRIRARPPRLPRPRPRPMSAPRP : top range
RRIRTRPPRLPRPRPRPMKSPRP : bottom range
RRIRTRPPRLPRPRPRPCPSPRP : center range
RRIRHRPPRLPRPRPRPQADPRP : bottom range

Sort `RRIRKRPPRLPRPRPRPDVGPRP` into one of the categories.
center range

Sort `RRIRRRPPRLPRPRPRPAWIPRP` into one of the categories.
top range

Sort `RRIRVRPPRLPRPRPRPEAFPRP` into one of the categories.
top range

Sort `RRIRIRPPRLPRPRPRPRTTPRP` into one of the categories.
bottom range

Sort `RRIRPRPPRLPRPRPRPYIVPRP` into one of the categories.
bottom range

Sort `RRIRVRPPRLPRPRPRPCEGPRP` into one of the categories.
center range

Sort `RRIRMRPPRLPRPRPRPDLHPRP` into one of the categories.
center range

Sort `RRIRWRPPRLPRPRPRPKLQPRP` into one of the categories.
top range

====

- Test system: Escherichia coli TOP10
- experiment_summary: shrunken log2 fold change of peptide-encoding DNA abundance (4.5 h post-induction vs induction); higher = less antimicrobial activity (less host growth inhibition)
- condition_info: time post-induction: 4.5 h; library: site-saturation at positions 5, 18, 19, 20
We begin with a simple list: items and their reported shrunken log2 fold change.
// no unit, no text: just the number

Example entries begin here.
RRIRCRPPRLPRPRPRPQIVPRP : -0.345
RRIRRRPPRLPRPRPRPHGSPRP : -0.0609

Report shrunken log2 fold change, nothing else, for this sequence: `RRIRMRPPRLPRPRPRPQMEPRP`
0.0809

Report shrunken log2 fold change, nothing else, for this sequence: `RRIRVRPPRLPRPRPRPMNVPRP`
-0.0915

Report shrunken log2 fold change, nothing else, for this sequence: `RRIRMRPPRLPRPRPRPFLIPRP`
-0.34

Report shrunken log2 fold change, nothing else, for this sequence: `RRIRPRPPRLPRPRPRPPNVPRP`
-0.0451

Report shrunken log2 fold change, nothing else, for this sequence: `RRIRDRPPRLPRPRPRPTNWPRP`
0.111

Report shrunken log2 fold change, nothing else, for this sequence: `RRIRRRPPRLPRPRPRPCSEPRP`
-0.0216

Report shrunken log2 fold change, nothing else, for this sequence: `RRIRLRPPRLPRPRPRPTIVPRP`
-0.183

Report shrunken log2 fold change, nothing else, for this sequence: `RRIRGRPPRLPRPRPRPPEMPRP`
1.62

Report shrunken log2 fold change, nothing else, for this sequence: `RRIRLRPPRLPRPRPRPLWSPRP`
0.0537

Report shrunken log2 fold change, nothing else, for this sequence: `RRIRSRPPRLPRPRPRPDPKPRP`
-0.00687

Report shrunken log2 fold change, nothing else, for this sequence: `RRIRTRPPRLPRPRPRPHAWPRP`
3.26

Report shrunken log2 fold change, nothing else, for this sequence: `RRIRCRPPRLPRPRPRPHHQPRP`
-0.278

Report shrunken log2 fold change, nothing else, for this sequence: `RRIRERPPRLPRPRPRPKYIPRP`
-0.0434

====

- System: Escherichia coli TOP10
- experiment_summary: shrunken log2 fold change of peptide-encoding DNA abundance (4.5 h post-induction vs induction); higher = less antimicrobial activity (less host growth inhibition)
- condition_info: time post-induction: 4.5 h; library: site-saturation at positions 5, 18, 19, 20
readout_kind: shrunken log2 fold change

Example entries begin here.
RRIRERPPRLPRPRPRPMLEPRP : 0.282
RRIRHRPPRLPRPRPRPNQPPRP : 0.00401
RRIRQRPPRLPRPRPRPHEHPRP : 0.0439

Look up Escherichia coli TOP10 data: shrunken log2 fold change of `RRIRHRPPRLPRPRPRPAQTPRP` , then report it.
-0.1

Look up Escherichia coli TOP10 data: shrunken log2 fold change of `RRIRQRPPRLPRPRPRPFEYPRP` , then report it.
-0.0368

Look up Escherichia coli TOP10 data: shrunken log2 fold change of `RRIRSRPPRLPRPRPRPTVTPRP` , then report it.
0.166

Look up Escherichia coli TOP10 data: shrunken log2 fold change of `RRIRMRPPRLPRPRPRPKKQPRP` , then report it.
0.0673

Look up Escherichia coli TOP10 data: shrunken log2 fold change of `RRIRLRPPRLPRPRPRPPRPPRP` , then report it.
0.782

Look up Escherichia coli TOP10 data: shrunken log2 fold change of `RRIRFRPPRLPRPRPRPLFYPRP` , then report it.
-0.0429

====

- Test system: Escherichia coli TOP10
- experiment_summary: shrunken log2 fold change of peptide-encoding DNA abundance (4.5 h post-induction vs induction); higher = less antimicrobial activity (less host growth inhibition)
- condition_info: time post-induction: 4.5 h; library: site-saturation at positions 5, 18, 19, 20
We begin with a simple list: items and their reported shrunken log2 fold change.
// no unit, no text: just the number

Example entries begin here.
RRIRRRPPRLPRPRPRPSGGPRP : 0.318
RRIRFRPPRLPRPRPRPVHVPRP : -0.191
RRIRCRPPRLPRPRPRPFTRPRP : -0.291
RRIRARPPRLPRPRPRPMRPPRP : 0.342

Look up Escherichia coli TOP10 data: shrunken log2 fold change of `RRIRFRPPRLPRPRPRPLIRPRP` , then report it.
-0.382

====

- System: Escherichia coli TOP10
- experiment_summary: shrunken log2 fold change of peptide-encoding DNA abundance (4.5 h post-induction vs induction); higher = less antimicrobial activity (less host growth inhibition)
- condition_info: time post-induction: 4.5 h; library: site-saturation at positions 5, 18, 19, 20
Binning rule for recorded shrunken log2 fold change: low bin = under -0.04, mid bin = from -0.04 up to 0.1, high bin = 0.1 and over

Solved cases (8 shown):
RRIRTRPPRLPRPRPRPVKMPRP : low bin
RRIRQRPPRLPRPRPRPTFAPRP : high bin
RRIRDRPPRLPRPRPRPEFAPRP : high bin
RRIRMRPPRLPRPRPRPLQVPRP : high bin
RRIRRRPPRLPRPRPRPVSCPRP : low bin
RRIRNRPPRLPRPRPRPNPGPRP : high bin
RRIRYRPPRLPRPRPRPEYIPRP : low bin
RRIRYRPPRLPRPRPRPQQGPRP : low bin

Sort `RRIRCRPPRLPRPRPRPCCFPRP` into one of the categories.
low bin

Sort `RRIRQRPPRLPRPRPRPPTMPRP` into one of the categories.
high bin

====

We begin with a simple list: items and their reported shrunken log2 fold change.
- Test system: Escherichia coli TOP10
- experiment_summary: shrunken log2 fold change of peptide-encoding DNA abundance (4.5 h post-induction vs induction); higher = less antimicrobial activity (less host growth inhibition)
- condition_info: time post-induction: 4.5 h; library: site-saturation at positions 5, 18, 19, 20

Example entries begin here.
RRIRCRPPRLPRPRPRPWKIPRP : -0.268
RRIRSRPPRLPRPRPRPRLFPRP : 0.376

Report shrunken log2 fold change, nothing else, for this sequence: `RRIRQRPPRLPRPRPRPMIFPRP`
-0.0627

Report shrunken log2 fold change, nothing else, for this sequence: `RRIRFRPPRLPRPRPRPPAGPRP`
0.727

Report shrunken log2 fold change, nothing else, for this sequence: `RRIRFRPPRLPRPRPRPSHTPRP`
-0.035

Report shrunken log2 fold change, nothing else, for this sequence: `RRIRPRPPRLPRPRPRPRNQPRP`
0.00569

Report shrunken log2 fold change, nothing else, for this sequence: `RRIRTRPPRLPRPRPRPFLCPRP`
-0.978

Report shrunken log2 fold change, nothing else, for this sequence: `RRIRERPPRLPRPRPRPRNWPRP`
-0.0255

====

- Test system: Escherichia coli TOP10;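 further: peptides expressed intracellularly from a pBAD plasmid library in pooled LB shake-flask culture, induced with 0.3% L-arabinose, DNA abundance read by NGS, three biological replicates, DESeq2 with apeglm shrinkage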
- experiment_summary: shrunken log2 fold change of peptide-encoding DNA abundance (4.5 h post-induction vs induction); higher = less antimicrobial activity (less host growth inhibition)
- condition_info: time post-induction: 4.5 h; library: site-saturation at positions 5, 18, 19, 20
readout_kind: shrunken log2 fold change

Example entries begin here.
RRIRPRPPRLPRPRPRPLVHPRP : -0.00919
RRIRQRPPRLPRPRPRPGYGPRP : -0.131
RRIRTRPPRLPRPRPRPNNAPRP : -0.303
RRIRPRPPRLPRPRPRPTREPRP : 0.177
RRIRARPPRLPRPRPRPDTGPRP : -0.0932

Report shrunken log2 fold change, nothing else, for this sequence: `RRIRVRPPRLPRPRPRPHVRPRP`
-0.0188

Report shrunken log2 fold change, nothing else, for this sequence: `RRIRTRPPRLPRPRPRPYHMPRP`
-0.293

Report shrunken log2 fold change, nothing else, for this sequence: `RRIRIRPPRLPRPRPRPEQIPRP`
-9e-05

Report shrunken log2 fold change, nothing else, for this sequence: `RRIRARPPRLPRPRPRPFSTPRP`
-0.572

Data origin: the supplement of paper PMC9112550
